# System: olfactory system
# test_description: WUTC Odor Threshold Test (yes-no detection of odorant dilutions in water, signal detection analysis)
# Assay type: in vivo, human
# run_parameters: concentration 6, combined participant trials
Provide the recorded Mean d′ for the entries that follow.
One number for each entry.

compound	target_entity	obs_value
CC(=O)OCCC(C)C [Isoamyl Acetate, isoamyl acetate]	olfactory system	0.704
COc1cc(C=O)ccc1O	olfactory system	0.55
CCO	olfactory system	0.941

For each of the items listed, what is its Mean d′?
1. Cc1ccc(O)cc1
2. CC1=CCC2CC1C2(C)C (centres unmarked)

result:
1.154
0.742

###

# Tested on: olfactory system
# test_description: WUTC Odor Threshold Test (yes-no detection of odorant dilutions in water, signal detection analysis)
# Assay type: in vivo, human
# run_parameters: concentration 8, combined participant trials
measure: Mean d′
Give bare numbers.

Some compounds with known Mean d′ results, for comparison:
compound	Mean d′
COc1cc(C=O)ccc1O [Vanillin, vanillin]	1.11
CCO [Ethanol, ethanol]	1.066
CC(=O)OCCC(C)C [Isoamyl Acetate, isoamyl acetate]	1.299
Cc1ccc(O)cc1 [para-cresol]	1.403

Now, please, on to the next compound.
query: I am curious: what Mean d′ value has been reported for CC1=CCC2CC1C2(C)C [Pinene, L-α-pinene] ?
result: 2.097
